Hi there, I'd appreciate the recorded TGI for every entry that follows.
# Tested on: HCT-15 colon
# Run description: NCI tumour cell line growth inhibition, 48 h

Ask: So what's the measured TGI for this one? "COc1ccc(/C=c2\sc3n(c2=O)CCN=3)cc1"
Result: > 100 µM

Ask: // repeat for CC(=O)N1C(C(=O)NC2CCCCC2)CSC1c1ccccc1 (centres undefined) and report
Result: > 100 µM

Ask: What do you get for "Nc1nccc(-c2c[nH]c3cc(Br)ccc23)n1" ?
Result: > 100 µM

Ask: Then what about the compound COc1ccc2nc3cc(Cl)ccc3c(NCCNCC(C)O)c2c1 (centres undefined) ?
Result: 4.36 µM

Ask: Thanks! And COc1nc(NC2OC(COC(C)=O)C(OC(C)=O)C(OC(C)=O)C2OC(C)=O)c2c(OC(C)=O)cc(=O)oc2n1 (centres undefined) ?
Result: > 100 µM

Ask: Cool, now N#CC(Cc1ccccc1)N(CCC1=CCCCC1)C(c1ccccc1)c1ccccc1 (centres undefined)
Result: > 100 µM

Ask: What about this compound? "COC(=O)C(CCCN1C(=O)c2ccccc2C1=O)C(=O)OC"
Result: > 100 µM

Ask: Again, but for "C=C1C(=O)O[C@H]2[C@H]1CC/C(COC(=O)NCc1ccc(Cn3c(=O)sn(-c4ccc(OC)cc4)c3=O)cc1)=C\CC[C@@]1(C)O[C@@H]21"
Result: 3.36 µM

Ask: Another compound to look at: "O=[N+]([O-])c1cc(C=NC23CC4CC(CC(C4)C2)C3)ccc1Cl"
Result: 48.3 µM

---

# Test system: ACHN renal
# Run description: NCI tumour cell line growth inhibition, 48 h
Quantity measured: TGI (µM)
State the answer as a number, implicitly in µM.

Ask: I have this molecule here, "CC(C)=CCC[C@@H](C)c1c(O)c(O)c(C)c2nccnc12" , and I need its recorded TGI.
Result: 45.2

Ask: What do we get for CC1(C(=O)O)CCC2(C)CCC3(C)C(=CC(=O)C4C5(C)CCC(O)C(C)(C)C5CCC43C)C2C1 (stereo not given) ?
Result: 42.2

---

Would you kindly list TGI for each of these molecules?
# Tested on: CAKI-1 renal
# Run description: NCI tumour cell line growth inhibition, 48 h

Ask: Recorded TGI for "NC1(c2cc3ccccc3s2)CCCC1" , please?
Result: > 100 µM

Ask: Would you kindly repeat that for "Nc1ncnc2c1[nH]c(=O)n2-c1ccccc1" ?
Result: > 100 µM

Ask: Further, for "Cc1cc(C)nc(NS(=O)(=O)c2ccc(NC(=O)c3ccc4nc5ccccc5c(Nc5ccc(S(N)(=O)=O)cc5)c4c3)cc2)n1" ?
Result: > 100 µM

Ask: "Oc1ccccc1CNCc1nc2ccccc2[nH]1" ?
Result: > 100 µM

Ask: Ok, now "COc1ccc(/C=N/NC(=O)c2cccc3cc[nH]c23)cc1O"
Result: > 49 µM

Ask: Also, "CN(C)CCNS(=O)(=O)c1ccc(N)cc1" please.
Result: > 100 µM

---

Assignment: determine reported TGI for the given compounds.
# Test system: A498 renal
# Run description: NCI tumour cell line growth inhibition, 48 h

Ask: Quick one: TGI for "c1ccc(NCn2cnc3ccccc32)cc1" ?
Result: > 100 µM

Ask: Try this compound next: "COc1nncc2[nH]c(-c3ccccc3)cc12"
Result: > 100 µM

Ask: Also check "CC(=O)Oc1cccc2c1C(=O)CCCC2"
Result: > 100 µM

Ask: What about this compound? "Cc1ccc(-n2c3nc(=O)[nH]c(=O)c-3cc3cc([N+](=O)[O-])ccc32)cc1"
Result: 45.2 µM

Ask: And "O=C(c1ccccn1)C1(N2CCCCC2)CCCCC1" ?
Result: > 100 µM

Ask: Query "CCCCOC(=O)Nc1ccc(S(=O)(=O)Nc2ccccc2Cl)cc1" next
Result: 27.8 µM

Ask: Cool, now "COc1ccc(N=NC(=Nc2ccccc2)c2ccc(N(CCC#N)CCC#N)cc2)cc1"
Result: > 100 µM

---

# System: CCRF-CEM leukemia
# Run description: NCI tumour cell line growth inhibition, 48 h; in the data active = GI50 below about 0.43 µM; inactive = the rest
Choose one outcome from this list and give only that: active, inactive

Ask: # fetch the recorded call for "CCCOc1cc2ccccc2cc1C(=O)Nc1nc(N)c2c(ccc3nccc32)[nH]1" here
Result: active

Ask: Check "COc1ccc(-c2cn[nH]c2-c2cc(OC)c(OC)c(OC)c2)cc1" too.
Result: active

Ask: Now the compound CC1SC(c2ccc(F)cc2)N(NC(=O)C(O)c2ccccc2)C1=O (centres undefined)
Result: inactive

Ask: Another compound: "O=C(Nc1ccc(Oc2ccc(Nc3nc4ccccc4s3)cc2)cc1)Nc1ccc(Cl)c(C(F)(F)F)c1"
Result: inactive

---

# Tested on: CAKI-1 renal
# Run description: NCI tumour cell line growth inhibition, 48 h
Quantity measured: GI50

Ask: Entry under review: "CC(C)[C@@H]1C=C2CC[C@H]3[C@](C)(CN)CCC[C@]3(C)[C@H]2CC1" . Reported GI50?
Result: 1850 nM

Ask: Item: "COCCOc1ccc(-c2nc3ccc(-c4nc5ccc(N6CCN(C)CC6)cc5[nH]4)cc3[nH]2)cc1"
Result: 2250 nM

Ask: Entry to check: "CCOC(=O)C1=C(C)N(c2ccc(F)cc2F)[C@]2(C#N)C(O)=C(Cl)C(Cl)=C(O)[C@]12C#N"
Result: > 100000 nM

Ask: Item: COc1ccc2nc3cc(Cl)ccc3c(NCCNCC(C)O)c2c1 (stereo not drawn)
Result: 1570 nM

Ask: Also check C[C@]12CCC3c4ccc(O)cc4CCC3C1CC[C@@]2(O)CNC(=O)/C=C/c1ccc(O)c(O)c1 (stereo partly drawn)
Result: 11700 nM

Ask: Follow-up item: "Cn1ccc2c3c(Oc4ccc(NC(N)=O)cc4)ccnc3ccc21"
Result: > 100000 nM

Ask: Same read-out for "COC[C@H]1Cn2cc(-c3nc(Nc4ccnn4C)ncc3C)nc2C(=O)N1Cc1ccc(F)c(F)c1" ?
Result: 795 nM

Ask: Would you kindly repeat that for Nc1ccccc1SC(CC(=O)c1ccccc1)c1cccc([N+](=O)[O-])c1 (stereo not drawn) ?
Result: 16400 nM

---

# System: KM12 colon
# Run description: NCI tumour cell line growth inhibition, 48 h
Everything with TGI lower than 40 µM is label 0; everything else, including exactly 40 µM, is label 1.

Ask: Determine whether this compound has TGI no lower than 40 µM: "N=c1nnc2ccc(Cl)cc2n1O"
Result: label 1

Ask: Can you check "CCOC(=O)Nc1sc2c(c1C#N)CCCC2" next?
Result: label 1

Ask: And the next one, "CN(C)CCNS(=O)(=O)c1ccc(N)cc1" ?
Result: label 1

Ask: Same question, CC1(C)OC1COc1c2occc2cc2ccc(=O)oc12 (centres undefined) this time
Result: label 1

Ask: Now try "Cc1csc(-c2nnc(Nc3ccc(Oc4ncccc4-c4ccnc(N)n4)cc3)c3ccccc23)c1" .
Result: label 1

Ask: Let us now turn to "COc1cc(-c2ccc3cc(OC)c(OC)c(OC)c3c2)cc(OC)c1OC"
Result: label 1

Ask: Would you mind doing "Cn1ccc2c3c(Oc4ccc(NC(N)=O)cc4)ccnc3ccc21" as well?
Result: label 1

Ask: Now this one: "COC(=O)C(CCCN1C(=O)c2ccccc2C1=O)C(=O)OC"
Result: label 1

Ask: Queued: COP(=O)(OC)C1=c2c(C)noc2=C2C=COC2C1=O (centres undefined)
Result: label 1

Ask: Same question, "S=C(N/N=C(/c1ccccc1)c1ccccn1)N(Cc1ccccn1)Cc1ccccn1" this time
Result: label 0

Ask: Let us now turn to "O=S(=O)(c1ccccc1)c1cccc2c1NCCC2"
Result: label 1

Ask: Follow-up entry: "COC(=O)[C@@H](O)[C@](O)(CCC(C)C)C(=O)O[C@@H]1C(OC)=C[C@]23CCCN2CCc2cc4c(cc2[C@H]13)OCO4"
Result: label 0

Ask: And the next one, "CCCCCCCCCCCCCCCC[N+](C)(C)Cc1ccccc1" ?
Result: label 0

Ask: // query: "O=C1CCCCN1c1ccccc1C#C/C=C\C#Cc1ccccc1C(F)(F)F"
Result: label 0

Ask: For "O=c1ccc2ccccc2cc1[O-].O=c1ccc2ccccc2cc1[O-].[O]=[U+2]=[O]" then?
Result: label 1

Ask: Same read-out for "O=C(Nc1ccccc1-c1nn(C(=S)Nc2ccccc2)c(=S)n(C(=S)Nc2ccccc2)c1=O)C(F)(F)F" ?
Result: label 1

Ask: Now consider "Cc1nnc(NC(=O)c2nc(S(=O)(=O)Cc3ccc(F)cc3)ncc2Cl)s1" .
Result: label 0

Ask: Same thing, different compound: Nc1n[nH]c2cc(F)c([C@@H]3Nc4ccc5[nH]ncc5c4[C@H]4C5CCC(C5)[C@@H]34)cc12 (some centres undefined)
Result: label 0

Ask: # iterate: "CN(C)c1cc(NN=C(c2ccc(O)cc2)c2ccc(O)cc2)c([N+](=O)[O-])cc1[N+](=O)[O-]"
Result: label 0

Ask: Follow-up item: CC(=O)N1C(C(=O)NC2CCCCC2)CSC1c1ccccc1 (centres undefined)
Result: label 1

Ask: Same lookup for CC1SC(c2ccc(F)cc2)N(NC(=O)C(O)c2ccccc2)C1=O (centres undefined) , please.
Result: label 1

Ask: Another compound to check: "Oc1ccccc1CNCc1nc2ccccc2[nH]1"
Result: label 1

Ask: Lookup "O=[N+]([O-])c1cc(C=NC23CC4CC(CC(C4)C2)C3)ccc1Cl"
Result: label 1

Ask: # repeat for "COc1ccc(/C=N/NC(=O)c2cccc3cc[nH]c23)cc1O"
Result: label 1

Ask: Would you kindly repeat that for "COCCOc1ccc(-c2nc3ccc(-c4nc5ccc(N6CCN(C)CC6)cc5[nH]4)cc3[nH]2)cc1" ?
Result: label 0

Ask: What about this compound? Cc1ccc(NC(=O)CC2Sc3ccccc3NC2=O)cc1C (centres undefined)
Result: label 1

Ask: Further, for "Nc1n[nH]c2cccc(C#Cc3cccc(C(=O)Nc4ccc(CN5CCOCC5)c(C(F)(F)F)c4)c3)c12" ?
Result: label 0

Ask: Entry to check: "CCCCOC(=O)Nc1ccc(S(=O)(=O)Nc2ccccc2Cl)cc1"
Result: label 1

Ask: Lookup "Cc1ccc(NC(=O)c2ccc(OP(=O)(O)Nc3ccc(C)cc3)cc2)cc1"
Result: label 1

Ask: Queued: "CCCCCC1=CC(=O)C1(Cl)Cl"
Result: label 0

Ask: Check Cn1c(=O)c2c(nc3n2CC(C(=O)O)N3)n(C)c1=O (centres undefined) too.
Result: label 1

Ask: And what about the compound "O=c1c(-c2ccccc2)c2oc(c1-c1ccccc1)CSCc1cccc(c1)CSC2" ?
Result: label 1

Ask: Would you mind doing "CC(=O)NNc1nc(C)c(C(=O)/C=C/c2ccc(NC(C)=O)cc2)s1" as well?
Result: label 1

Ask: Now consider "Cc1ccc(-n2c3nc(=O)[nH]c(=O)c-3cc3cc([N+](=O)[O-])ccc32)cc1" .
Result: label 0

Ask: // next record "O=C(O)c1ccc2c(c1C(=O)O)C(=O)OC2(c1ccc(O)cc1)c1ccc(O)cc1"
Result: label 1

Ask: How about this compound: "Cc1cc(I)cc(CN(CCCN(C)C)C(C)C)c1O"
Result: label 0

Ask: Now the compound "O=C(/C=C/c1ccc([N+](=O)[O-])cc1)c1ccc(NCc2nc3ccccc3[nH]2)cc1"
Result: label 0
